Several publications report pIC50 on UniProt P34995; those values are gathered here.
pIC50: −log10 of the molar value.
readout-name: pIC50

>>> experimental_result("O=C1CCC(CCC(O)Cc2ccc(F)cc2)N1CCCCCCc1nn[nH]n1 (stereo not drawn)")
"< 5.49"
>>> experimental_result("CC(C)Cc1cn(-c2nc(-c3ncc[nH]3)cs2)c2cc(Cl)ccc12")
"≥ 7.00"
>>> experimental_result("CC(C)Cc1cn(-c2nc(C(=O)Nc3ccccc3CO)cs2)c2cc(Cl)ccc12")
"≥ 7.00"
>>> experimental_result("O=C(O)CCCCCCN1C(=O)CCC1CCC(O)Cc1ccccc1 (stereo not drawn)")
"< 5.49"
>>> experimental_result("O=C1CCC(CCC(O)Cc2ccccc2)C1CCCCCCc1nnn[nH]1 (stereo not drawn)")
"< 5.49"
>>> experimental_result("Cc1nnc(-c2csc(-n3cc(CC(C)C)c4ccc(Cl)cc43)n2)[nH]1")
"≥ 7.00"
